# Test system: E. faecalis ATCC 29212
# procedure_details: MIC, NCCLS broth microdilution assay
# Type: cell-based, Enterococcus faecalis
# test_parameters: E. faecalis ATCC 29212
assay_endpoint: Minimum Inhibitory Concentration (MIC)

NCCOCCOCCNc1cc(Cl)ccc1C(=O)Nc1ccc(-c2cc3ccccc3o2)cc1 [Compound A-24] : + (12 ≦ MIC ≦ 32)
NCCOCCOCCNc1snc(C(=O)Nc2ccc(-c3cc4ccccc4o3)cc2)c1Cl [Compound A-6] : +++ (MIC ≦ 4)
O=C(Nc1ccc(-c2cc3ccccc3o2)nc1)c1nsc(NCCN2CCNCC2)c1Cl [Compound A-35] : + (12 ≦ MIC ≦ 32)
O=C(Nc1ccc(-c2cc3ccccc3s2)nc1)c1nsc(NCCN2CCNCC2)c1Cl [Compound A-70] : +++ (MIC ≦ 4)
Cc1ccc2nc(-c3ccc(NC(=O)c4nsc(NCCCN(C)C)c4Cl)cc3)sc2c1 [Compound A-54] : +++ (MIC ≦ 4)
Cc1ccc2oc(-c3ccc(NC(=O)c4nsc(NCCCN(C)C)c4Cl)cc3)cc2n1 [Compound A-55] : + (12 ≦ MIC ≦ 32)
CN(C)CCCNc1snc(C(=O)Nc2ccc(-c3cc4ccccc4s3)nc2)c1Cl [Compound A-67] : +++ (MIC ≦ 4)
CN(C)CCCNc1snc(C(=O)Nc2ccc(-c3cc4ccccc4o3)nc2)c1Cl [Compound A-36] : ++ (4 < MIC < 12)
CCN(CC)CCCNc1cc(Cl)ccc1C(=O)Nc1ccc(-c2cc3ccccc3o2)cc1 [Compound A-23] : +++ (MIC ≦ 4)
NCCCCNc1snc(C(=O)Nc2ccc(-c3cc4ccccc4o3)cc2)c1Cl [Compound A-4] : +++ (MIC ≦ 4)

Input: Determine from records and report Minimum Inhibitory Concentration (MIC) for Cc1ccc2nc(-c3ccc(NC(=O)c4nsc(NCCCN)c4Cl)cc3)sc2c1 [Compound A-53]
Output: +++ (MIC ≦ 4)

Input: Tell me Minimum Inhibitory Concentration (MIC) reported for NCCCCNc1snc(C(=O)Nc2ccc(-c3cc4ccccc4o3)nc2)c1Cl [Compound A-37]
Output: ++ (4 < MIC < 12)

Input: # return recorded Minimum Inhibitory Concentration (MIC) for input CN(C)CCCNc1snc(C(=O)Nc2ccc(-c3cc4ccccc4[nH]3)cc2)c1Cl [Compound A-57]
Output: ++ (4 < MIC < 12)

Input: Quick one: give measured Minimum Inhibitory Concentration (MIC) for O=C(Nc1ccc(-c2cc3ccccc3s2)nc1)c1nsc(NCCN2CCCCC2)c1Cl [Compound A-69]
Output: >32 µg/mL

Input: Consider the compound O=C(Nc1ccc(-c2cc3ccccc3o2)nc1)c1ccc(Cl)cc1NCCN1CCCC1 [Compound A-43] and give its recorded Minimum Inhibitory Concentration (MIC).
Output: ++ (4 < MIC < 12)

Input: Look up Minimum Inhibitory Concentration (MIC) of O=C(Nc1ccc(-c2cc3ccccc3s2)nc1)c1cccnc1NCCN1CCCCC1 [Compound A-72] and report it.
Output: >32 µg/mL

Input: For NCCNc1snc(C(=O)Nc2ccc(-c3cc4ccccc4o3)cc2)c1Cl [Compound A-3] , write its Minimum Inhibitory Concentration (MIC).
Output: +++ (MIC ≦ 4)

Input: Report measured Minimum Inhibitory Concentration (MIC); entry is O=C(Nc1ccc(-c2cc3ccccc3o2)cc1)c1cccnc1NCCN1CCCCC1 [Compound A-13]
Output: +++ (MIC ≦ 4)

Input: Provide one value: measured Minimum Inhibitory Concentration (MIC) of NCCCNc1snc(C(=O)Nc2ccc(-c3cc4ccccc4o3)cc2)c1Cl [Compound A-2]
Output: +++ (MIC ≦ 4)

Input: Supply measured Minimum Inhibitory Concentration (MIC) of Cc1ccc2nc(-c3ccc(NC(=O)c4nsc(NCCCN(C)CCCN)c4Cl)cc3)sc2c1 [Compound A-51] in your reply.
Output: +++ (MIC ≦ 4)
